Molecular target: T1, DLG3_2, Q92796
T1 sequence (Q92796 221-321, limits assumed, looked up): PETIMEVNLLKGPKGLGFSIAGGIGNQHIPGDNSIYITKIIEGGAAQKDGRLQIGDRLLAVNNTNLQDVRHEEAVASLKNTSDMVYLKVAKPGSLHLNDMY
Experiment: holdup assay
Parameters: key: below the threshold = too weak to quantify, mostly under pKd 3.1 to 4
Conditions: plain residues with an end cap or a label only (N-terminal biotin on a linker: ado-ado)
recorded metric: pKd
Output spec: single numeric token, no unit.

Supply pKd value. Item: APIAGFSSFV [SDK2, Q58EX2]
4.07

Give a short answer stating reported pKd for ELSATVTTDC [TRIP6, Q15654] .
4.23

Return the recorded pKd value; entry: AQRARSPSDV [GPR12, P47775]
4.32

Supply reported pKd belonging to this binder: NNNVVKVDSV [MTNR1A, P48039]
4.03

Read off the recorded pKd for RQKEVRESKC [SCN8A, Q9UQD0]
4.1

Provide pKd value for the following binder: DFLSTFHIRI [CIB2, O75838]
3.97
